Tested on: IFN-β secretion from THP1 cells
Assay: IFN-β secretion in THP1 cell culture (5 h)
Type: cell-based, human
Conditions: THP1 cells, 5 h incubation, compound at 30 μM; 30 uM cGAMP = 100%
Quantity Measured: % Effect at 30 μM relative to 2′3′-cGAMP (%)
Record the value in %, omitting the unit from your answer.

Take a look at these entries with their results.
Compound	Quantity Measured	Unit Annotation	Observed Measurement
Nc1nc2c(ncn2[C@@H]2O[C@@H]3COP(=O)(S)O[C@H]4[C@@H](O)[C@H](n5cnc6c(=O)[nH]c7nccn7c65)O[C@@H]4COP(=O)(S)O[C@@H]2[C@@H]3F)c(=O)[nH]1 (single isomer, unassigned) [Example 32]	% Effect at 30 μM relative to 2′3′-cGAMP	%	141
Nc1nc2c(nnn2[C@@H]2S[C@@H]3COP(=O)(S)O[C@H]4[C@H](F)[C@H](n5ccc6c(=O)[nH]cnc65)O[C@@H]4COP(=O)(S)O[C@@H]2[C@@H]3F)c(=O)[nH]1 (single isomer, unassigned) [Example 50]	% Effect at 30 μM relative to 2′3′-cGAMP	%	109
Nc1nc2c(nnn2[C@@H]2S[C@@H]3COP(=O)(S)O[C@H]4[C@H](F)[C@H](n5ccc6c(=O)[nH]cnc65)O[C@@H]4COP(=O)(S)O[C@@H]2[C@@H]3F)c(=O)[nH]1 (single isomer, unassigned) [Example 49]	% Effect at 30 μM relative to 2′3′-cGAMP	%	163
Nc1ncnc2c1ncn2[C@@H]1O[C@@H]2CO[P@@](=O)(S)O[C@@H]3C[C@@H](CO[P@@](=O)(S)O[C@H]2[C@@H]1F)O[C@H]3n1ccc(=O)n2ccnc12 [Example 19]	% Effect at 30 μM relative to 2′3′-cGAMP	%	7
Nc1nc2c(ncn2[C@@H]2O[C@@H]3COP(=O)(S)O[C@H]4[C@@H](O)[C@H](n5cnc6c(=O)[nH]c7nccn7c65)O[C@@H]4COP(=O)(S)O[C@@H]2[C@@H]3F)c(=O)[nH]1 (single isomer, unassigned) [Example 33]	% Effect at 30 μM relative to 2′3′-cGAMP	%	83

Record for Nc1nc2c(nnn2[C@@H]2O[C@@H]3COP(=O)(S)O[C@H]4C[C@H](n5ccc6c(=O)[nH]cnc65)O[C@@H]4COP(=O)(S)O[C@@H]2C3)c(=O)[nH]1 (single isomer, unassigned) [Example 42] under target or system IFN-β secretion from THP1 cells: % Effect at 30 μM relative to 2′3′-cGAMP reported as 72

Record for Nc1ncnc2c1ncn2[C@@H]1O[C@@]23CO[C@@H]1[C@@H]2OP(=O)(S)OC[C@H]1O[C@@H](n2cnc4c(=O)n5cc[nH]c5nc42)[C@H](OP(=O)(S)OC3)[C@@H]1F (single isomer, unassigned) [Example 26] under target or system IFN-β secretion from THP1 cells: % Effect at 30 μM relative to 2′3′-cGAMP reported as 153

###

Molecular target: full-length WT STING (Homo sapiens, UniProt Q86WV6, H232R)
Construct: made in house; host or cells: Trichoplusia ni insect cells, baculovirus generated in Sf21; crude membranes
Sequence (Q86WV6 with tags, fused parts or gaps H232R): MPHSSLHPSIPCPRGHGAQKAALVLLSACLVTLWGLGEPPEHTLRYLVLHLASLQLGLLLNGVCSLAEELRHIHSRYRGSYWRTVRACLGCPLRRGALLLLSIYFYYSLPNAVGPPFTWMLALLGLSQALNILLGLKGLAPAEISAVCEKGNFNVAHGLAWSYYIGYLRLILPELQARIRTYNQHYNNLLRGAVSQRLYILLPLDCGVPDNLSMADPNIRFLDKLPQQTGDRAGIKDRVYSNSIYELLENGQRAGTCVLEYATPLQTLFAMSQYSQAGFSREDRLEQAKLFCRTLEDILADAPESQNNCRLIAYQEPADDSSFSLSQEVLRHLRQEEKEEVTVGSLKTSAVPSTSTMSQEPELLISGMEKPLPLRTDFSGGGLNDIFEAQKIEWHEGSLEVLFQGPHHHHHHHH
Test: 3H-cGAMP filtration binding assay (WT STING)
Settings: competition with tritiated cGAMP ligand; T. ni cell membranes overexpressing full-length WT STING
Flag rule - EC50 less than 300 nM flags Yes; the remaining entries get No.

See these solved cases before continuing.
Compound	Target Desc	Class Assignment
Nc1nc2c(nnn2[C@@H]2O[C@@H]3COP(=O)(S)O[C@H]4[C@H](F)[C@H](n5ccc6c(=O)[nH]cnc65)O[C@@H]4COP(=O)(S)O[C@@H]2[C@H]3F)c(=O)[nH]1 (stereo partly drawn)	full-length WT STING (Homo sapiens, UniProt Q86WV6, H232R)	Yes
Nc1ncnc2c1ncn2[C@@H]1O[C@@H]2COP(=O)(S)O[C@@H]3[C@H](O)[C@@H](COP(=O)(S)O[C@H]2[C@@H]1F)O[C@H]3n1cnc2c(=O)n3cc[nH]c3nc21 (single isomer, unassigned) [Example 15]	full-length WT STING (Homo sapiens, UniProt Q86WV6, H232R)	Yes
Nc1nc2c(ncn2[C@@H]2O[C@@H]3COP(=O)(S)O[C@H]4C[C@H](n5cc(F)c6c(=O)[nH]cnc65)O[C@@H]4COP(=O)(S)O[C@@H]2[C@@H]3F)c(=O)[nH]1 (single isomer, unassigned)	full-length WT STING (Homo sapiens, UniProt Q86WV6, H232R)	Yes
O=c1[nH]cnc2c1ncn2[C@@H]1O[C@@H]2CO[P@@](=O)(S)O[C@@H]3C[C@@H](CO[P@@](=O)(S)O[C@H]2[C@@H]1F)O[C@H]3n1ccc(=O)n2ccnc12	full-length WT STING (Homo sapiens, UniProt Q86WV6, H232R)	Yes
Nc1nc2c(ncn2[C@@H]2O[C@@H]3CO[P@@](=O)(S)O[C@H]4C[C@H](n5ccc6c(=O)[nH]cnc65)O[C@@H]4CO[P@@](=O)(S)O[C@@H]2C3)c(=O)[nH]1 (single isomer, unassigned)	full-length WT STING (Homo sapiens, UniProt Q86WV6, H232R)	No

Turning to the following compound.
Threshold test, EC50 < 300 nM: Nc1nc2c(nnn2[C@@H]2S[C@@H]3COP(=O)(S)O[C@H]4[C@H](F)[C@H](n5ccc6c(=O)[nH]cnc65)O[C@@H]4COP(=O)(S)O[C@@H]2[C@@H]3F)c(=O)[nH]1 (single isomer, unassigned) [Example 49] No

###

Target: full-length HAQ STING (Homo sapiens, UniProt Q86WV6, G230A/H232R/R293Q/R71H)
Construct: made in house; host or cells: Trichoplusia ni (Hi-Five) insect cells, baculovirus generated in Sf21; crude membranes
Sequence (Q86WV6 with tags, fused parts or gaps R71H/G230A/H232R/R293Q): as the sequence (Q86WV6 with tags, fused parts or gaps H232R) above, with R71H, G230A, R293Q counted along it
Assay: 3H-cGAMP filtration binding assay (HAQ STING)
Settings: competition with tritiated cGAMP ligand; T. ni cell membranes overexpressing full-length HAQ STING
Quantity Measured: EC50

Compound	Target Desc	EC50
Nc1ncnc2c1nnn2[C@@H]1O[C@@H]2COP(=O)(S)O[C@@H]3C[C@@H](COP(=O)(S)O[C@H]2[C@@H]1F)O[C@H]3n1cnc2c(=O)n3cc[nH]c3nc21 (some centres unmarked)	full-length HAQ STING (Homo sapiens, UniProt Q86WV6, G230A/H232R/R293Q/R71H)	41 nM
O=c1ccn([C@@H]2O[C@@H]3COP(=O)(S)O[C@@H]4[C@H](O)[C@@H](COP(=O)(S)O[C@H]3[C@H]2O)O[C@H]4n2ccc(=O)n3ccnc23)c2nccn12 (some centres unmarked)	full-length HAQ STING (Homo sapiens, UniProt Q86WV6, G230A/H232R/R293Q/R71H)	37 nM
Nc1nc2c(nnn2[C@@H]2O[C@@H]3COP(=O)(S)O[C@H]4C[C@H](n5ccc6c(=O)[nH]cnc65)O[C@@H]4COP(=O)(S)O[C@@H]2C3)c(=O)[nH]1 (single isomer, unassigned) [Example 42]	full-length HAQ STING (Homo sapiens, UniProt Q86WV6, G230A/H232R/R293Q/R71H)	1 nM
Nc1nc2c(ncn2[C@@H]2O[C@@H]3COP(=O)(S)O[C@H]4[C@@H](O)[C@H](n5cnc6c(=O)[nH]c7nccn7c65)O[C@@H]4COP(=O)(S)O[C@@H]2[C@@H]3F)c(=O)[nH]1 (single isomer, unassigned) [Example 32]	full-length HAQ STING (Homo sapiens, UniProt Q86WV6, G230A/H232R/R293Q/R71H)	14 nM
Nc1ncnc2c1nnn2[C@@H]1O[C@@H]2COP(=O)(S)O[C@@H]3[C@H](F)[C@@H](COP(=O)(S)O[C@H]2[C@@H]1F)O[C@H]3n1cnc2c(=O)n3cc[nH]c3nc21 (single isomer, unassigned) [Example 24]	full-length HAQ STING (Homo sapiens, UniProt Q86WV6, G230A/H232R/R293Q/R71H)	411 nM
Nc1ncnc2c1ncn2[C@@H]1O[C@@]23CO[C@@H]1[C@@H]2OP(=O)(S)OC[C@H]1O[C@@H](n2cnc4c(=O)n5cc[nH]c5nc42)[C@H](OP(=O)(S)OC3)[C@@H]1F (single isomer, unassigned) [Example 25]	full-length HAQ STING (Homo sapiens, UniProt Q86WV6, G230A/H232R/R293Q/R71H)	1 nM
Nc1ncnc2c1ncn2[C@@H]1S[C@@H]2CO[P@@](=O)(S)O[C@@H]3[C@H](O)[C@@H](CO[P@](=O)(S)O[C@H]2[C@H]1O)O[C@H]3n1ccc(=O)n2ccnc12 (single isomer, unassigned)	full-length HAQ STING (Homo sapiens, UniProt Q86WV6, G230A/H232R/R293Q/R71H)	156 nM
Nc1ncnc2c1ncn2[C@@H]1S[C@@H]2CO[P@](=O)(S)O[C@@H]3[C@H](O)[C@@H](CO[P@@](=O)(S)O[C@H]2[C@H]1O)O[C@H]3n1ccc(=O)n2ccnc12 (single isomer, unassigned)	full-length HAQ STING (Homo sapiens, UniProt Q86WV6, G230A/H232R/R293Q/R71H)	1740 nM
Nc1nc2c(ncn2[C@@H]2O[C@@H]3COP(=O)(O)O[C@H]4C[C@H](n5ccc6c(=O)[nH]cnc65)O[C@@H]4COP(=O)(S)O[C@@H]2C3)c(=O)[nH]1 (some centres unmarked)	full-length HAQ STING (Homo sapiens, UniProt Q86WV6, G230A/H232R/R293Q/R71H)	12 nM
Nc1nc2c(nnn2[C@@H]2O[C@@H]3COP(=O)(S)O[C@H]4[C@H](F)[C@H](n5ccc6c(=O)[nH]cnc65)O[C@@H]4COP(=O)(S)O[C@@H]2[C@H]3F)c(=O)[nH]1 (some centres unmarked)	full-length HAQ STING (Homo sapiens, UniProt Q86WV6, G230A/H232R/R293Q/R71H)	2 nM

EC50 for Nc1ncnc2c1ncn2[C@@H]1O[C@@]23CO[C@@H]1[C@@H]2OP(=O)(S)OC[C@H]1O[C@@H](n2cnc4c(=O)n5cc[nH]c5nc42)[C@H](OP(=O)(S)OC3)[C@@H]1F (single isomer, unassigned) [Example 27] is 61 nM

EC50 for Nc1nc2c(ncn2[C@@H]2O[C@@H]3COP(=O)(S)O[C@H]4C[C@H](n5ccc6c(=O)[nH]cnc65)O[C@@H]4COP(=O)(S)O[C@@H]2C3)c(=O)[nH]1 (single isomer, unassigned) is 49 nM

EC50 for Nc1ncnc2c1ncn2[C@@H]1S[C@@H]2COP(=O)(S)OC3[C@H](n4cnc5c(=O)n6cc[nH]c6nc54)O[C@H](COP(=O)(S)OC2C1O)[C@H]3F (stereo in doubt) is 3 nM

EC50 for Nc1nc2c(ncn2[C@@H]2O[C@@H]3COP(=O)(S)O[C@H]4[C@H](F)[C@H](n5ccc6c(=O)[nH]cnc65)O[C@@H]4COP(=O)(S)O[C@@H]2[C@@H]3F)c(=O)[nH]1 (single isomer, unassigned) [Example 39] is 1 nM

EC50 for Nc1ccnc2c1ccn2[C@H]1C[C@@H]2OP(=O)(S)OC[C@H]3O[C@@H](n4ccc(=O)n5ccnc45)[C@H](OP(=O)(S)OC[C@H]2O1)[C@@H]3O (some centres unmarked) is 1120 nM

EC50 for Nc1ncnc2c1ncn2[C@@H]1O[C@@H]2COP(=O)(S)O[C@H]3[C@H](F)[C@H](n4ccc5c(=O)[nH]cnc54)O[C@@H]3COP(=O)(S)O[C@@H]1C2 (single isomer, unassigned) [Example 46] is 16 nM

The values you see were collected from patent US11685761B2.
